Values compiled from the RNAGym collection of RNA variant scans (doi:10.7554/elife.80360).

B1: Hairpin Ribozyme (parent)
chain: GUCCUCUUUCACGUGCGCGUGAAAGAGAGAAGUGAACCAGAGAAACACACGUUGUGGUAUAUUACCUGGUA

variants of: B1; assay: self-cleavage, relative activity (ratio to wild type); higher = more cleavage; co-transcriptional
assay endpoint: self-cleavage
Answers are plain numbers.

[[record]]
mut = "U58C C66G"
assay_endpoint = "self-cleavage"
observed = 0.154


Items follow; give self-cleavage for each.
1. U5A C10U
2. G32U A44G
3. A31G G69A
4. G17A G54A
5. C18G U62G
6. A36C A47C

1: 0.333; 2: 0.0996; 3: 0.178; 4: 0.543; 5: 0.163; 6: 0.262
